Test system: NCI-H23 complex spheroids with HUVEC/MSC, viability
Test: Anticancer human tumor NCI-H23 cell line growth inhibition [RAS]; active = viability on the fitted dose curve at most 10% of control; inactive = the rest;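 also: spheroids exposed to compound for 7 days; 100% = DMSO vehicle control viability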
Settings: second compound 0.003 µM; first compound 3.16 µM
Lab note: assign the record to one of active, inactive

### Prompt Lab log entry: CC(C)NCC(C(=O)N1CCN(c2ncnc3c2C(C)CC3O)CC1)c1ccc(Cl)cc1 (centres undefined) + CCn1c(-c2cccnc2C(C)OC)c2c3cc(ccc31)N1CCOC(CC(NC(=O)C(C(C)C)N(C)C(=O)C3(F)CCN(C(=O)C#CC(C)(C)N(C)C)CC3)C(=O)N3CCCC(N3)C(=O)OCC(C)(C)C2)C1 — outcome as called in the assay?
### Response inactive

### Prompt Could you please tell me the result logged for CC(=O)OC12COC1CC(O)C1(C)C(=O)C(O)C3=C(C)C(OC(=O)C(O)C(NC(=O)OC(C)(C)C)c4ccccc4)CC(O)(C(OC(=O)c4ccccc4)C21)C3(C)C (centres undefined) + CCn1c(-c2cccnc2C(C)OC)c2c3cc(ccc31)N1CCOC(CC(NC(=O)C(C(C)C)N(C)C(=O)C3(F)CCN(C(=O)C#CC(C)(C)N(C)C)CC3)C(=O)N3CCCC(N3)C(=O)OCC(C)(C)C2)C1 in this assay?
### Response inactive

### Prompt Which result was noted for this compound in the test: CCC(CC)c1cc(NC2CCC(N)C2)n2nccc2n1 (centres undefined) + CCn1c(-c2cccnc2C(C)OC)c2c3cc(ccc31)N1CCOC(CC(NC(=O)C(C(C)C)N(C)C(=O)C3(F)CCN(C(=O)C#CC(C)(C)N(C)C)CC3)C(=O)N3CCCC(N3)C(=O)OCC(C)(C)C2)C1
### Response active

### Prompt What classification did CC(Nc1ccc2c(c1)OCCn1cc(N3C(=O)OCC3C(F)F)nc1-2)C(N)=O (centres undefined) + CCn1c(-c2cc(N3CCN(C)CC3)cnc2C(C)OC)c2c3cc(ccc31)-c1csc(n1)CC(NC(=O)C1CC1C)C(=O)N1CCCC(N1)C(=O)OCC(C)(C)C2 end up with in this test?
### Response inactive

###

System: NCI-H23 complex spheroids with HUVEC/MSC, viability
Assay: Anticancer human tumor NCI-H23 cell line growth inhibition [RAS]; active = viability on the fitted dose curve at most 10% of control; inactive = the rest;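 also: spheroids exposed to compound for 7 days; 100% = DMSO vehicle control viability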
Details: second compound 0.03 µM; first compound 3.16 µM
Log the outcome using a class from 1.0 for active, 0.0 for inactive

### Prompt Short answer needed: outcome of this test for NC1c2ccccc2OC12CCN(c1cnc3c(N4CCCc5ncccc54)n[nH]c3n1)CC2 (stereo not drawn) + CCn1c(-c2cccnc2C(C)OC)c2c3cc(ccc31)N1CCOC(CC(NC(=O)C(C(C)C)N(C)C(=O)C3(F)CCN(C(=O)C#CC(C)(C)N(C)C)CC3)C(=O)N3CCCC(N3)C(=O)OCC(C)(C)C2)C1 ?
### Response 1.0

### Prompt Give the logged outcome of this assay for the following compound: CC1(O)CCCC1n1c(=O)c(C(F)F)cc2cnc(NC3CCN(S(C)(=O)=O)CC3)nc21 (stereo not drawn) + CCn1c(-c2cc(N3CCN(C)CC3)cnc2C(C)OC)c2c3cc(ccc31)-c1csc(n1)CC(NC(=O)C1CC1C)C(=O)N1CCCC(N1)C(=O)OCC(C)(C)C2
### Response 0.0

### Prompt Kindly provide the recorded test outcome for the following compound: CCC(CC)c1cc(NC2CCC(N)C2)n2nccc2n1 (stereo not drawn) + CCn1c(-c2cc(N3CCN(C)CC3)cnc2C(C)OC)c2c3cc(ccc31)-c1csc(n1)CC(NC(=O)C1CC1C)C(=O)N1CCCC(N1)C(=O)OCC(C)(C)C2
### Response 1.0

### Prompt What is the recorded call for this compound in the test? C[C@@H](NC(=O)c1ncnc(N)c1Cl)c1ncc(C(=O)Nc2cc(C(F)(F)F)c(Cl)cn2)s1 + CCn1c(-c2cccnc2C(C)OC)c2c3cc(ccc31)N1CCOC(CC(NC(=O)C(C(C)C)N(C)C(=O)C3(F)CCN(C(=O)C#CC(C)(C)N(C)C)CC3)C(=O)N3CCCC(N3)C(=O)OCC(C)(C)C2)C1
### Response 0.0

### Prompt Record request — test call for CC(Nc1ccc2c(c1)OCCn1cc(N3C(=O)OCC3C(F)F)nc1-2)C(N)=O (stereo not drawn) + CCn1c(-c2cccnc2C(C)OC)c2c3cc(ccc31)N1CCOC(CC(NC(=O)C(C(C)C)N(C)C(=O)C3(F)CCN(C(=O)C#CC(C)(C)N(C)C)CC3)C(=O)N3CCCC(N3)C(=O)OCC(C)(C)C2)C1
### Response 0.0

### Prompt Outcome? Cc1nc(N2CCC3(CC2)COC(C)C3N)c(CO)nc1Sc1ccnc(N)c1Cl (stereo not drawn) + CCn1c(-c2cccnc2C(C)OC)c2c3cc(ccc31)N1CCOC(CC(NC(=O)C(C(C)C)N(C)C(=O)C3(F)CCN(C(=O)C#CC(C)(C)N(C)C)CC3)C(=O)N3CCCC(N3)C(=O)OCC(C)(C)C2)C1
### Response 0.0

### Prompt What classification did NC1c2ccccc2OC12CCN(c1cnc3c(N4CCCc5ncccc54)n[nH]c3n1)CC2 (stereo not drawn) + CCn1c(-c2cc(N3CCN(C)CC3)cnc2C(C)OC)c2c3cc(ccc31)-c1csc(n1)CC(NC(=O)C1CC1C)C(=O)N1CCCC(N1)C(=O)OCC(C)(C)C2 end up with in this test?
### Response 1.0

### Prompt Per the assay record, what outcome was assigned to CCC(CC)c1cc(NC2CCC(N)C2)n2nccc2n1 (stereo not drawn) + CCn1c(-c2cccnc2C(C)OC)c2c3cc(ccc31)N1CCOC(CC(NC(=O)C(C(C)C)N(C)C(=O)C3(F)CCN(C(=O)C#CC(C)(C)N(C)C)CC3)C(=O)N3CCCC(N3)C(=O)OCC(C)(C)C2)C1 ?
### Response 1.0

###

System: NCI-H23 complex spheroids with HUVEC/MSC, viability
Assay: Anticancer human tumor NCI-H23 cell line growth inhibition [RAS];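 also: spheroids exposed to compound for 7 days; 100% = DMSO vehicle control viability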
Conditions: second compound 0.003 µM; first compound 0.0316 µM; hits give low values
RECORDED_METRIC: viability, T/C (%)
# number only, unit % dropped from output

Record summary for C=CC(=O)Nc1cc(Nc2nccc(-c3cn(C)c4ccccc34)n2)c(OC)cc1N(C)CCN(C)C + CCn1c(-c2cc(N3CCN(C)CC3)cnc2C(C)OC)c2c3cc(ccc31)-c1csc(n1)CC(NC(=O)C1CC1C)C(=O)N1CCCC(N1)C(=O)OCC(C)(C)C2 : reported viability, T/C = 30.1

The measured viability, T/C associated with CCC(CC)c1cc(NC2CCC(N)C2)n2nccc2n1 (stereo not given) + CCn1c(-c2cccnc2C(C)OC)c2c3cc(ccc31)N1CCOC(CC(NC(=O)C(C(C)C)N(C)C(=O)C3(F)CCN(C(=O)C#CC(C)(C)N(C)C)CC3)C(=O)N3CCCC(N3)C(=O)OCC(C)(C)C2)C1 reads 27.1

Short answer for Nc1ccn(C2OC(CO)C(O)C2(F)F)c(=O)n1 (stereo not given) + CCn1c(-c2cccnc2C(C)OC)c2c3cc(ccc31)N1CCOC(CC(NC(=O)C(C(C)C)N(C)C(=O)C3(F)CCN(C(=O)C#CC(C)(C)N(C)C)CC3)C(=O)N3CCCC(N3)C(=O)OCC(C)(C)C2)C1 : viability, T/C was 1.61

For reference, reported viability, T/C for C[C@@H](NC(=O)c1ncnc(N)c1Cl)c1ncc(C(=O)Nc2cc(C(F)(F)F)c(Cl)cn2)s1 + CCn1c(-c2cc(N3CCN(C)CC3)cnc2C(C)OC)c2c3cc(ccc31)-c1csc(n1)CC(NC(=O)C1CC1C)C(=O)N1CCCC(N1)C(=O)OCC(C)(C)C2 stands at 39.7

// field: viability, T/C; key: Nc1ccn(C2OC(CO)C(O)C2(F)F)c(=O)n1 (stereo not given) + CCn1c(-c2cc(N3CCN(C)CC3)cnc2C(C)OC)c2c3cc(ccc31)-c1csc(n1)CC(NC(=O)C1CC1C)C(=O)N1CCCC(N1)C(=O)OCC(C)(C)C2 ; value = 1.42

Sure, the documented viability, T/C for C=CC(=O)Nc1cc(Nc2nccc(-c3cn(C)c4ccccc34)n2)c(OC)cc1N(C)CCN(C)C + CCn1c(-c2cccnc2C(C)OC)c2c3cc(ccc31)N1CCOC(CC(NC(=O)C(C(C)C)N(C)C(=O)C3(F)CCN(C(=O)C#CC(C)(C)N(C)C)CC3)C(=O)N3CCCC(N3)C(=O)OCC(C)(C)C2)C1 is 101

So, O=C(c1ccc(F)c(F)c1Nc1ccc(I)cc1F)N1CC(O)([C@@H]2CCCCN2)C1 + CCn1c(-c2cc(N3CCN(C)CC3)cnc2C(C)OC)c2c3cc(ccc31)-c1csc(n1)CC(NC(=O)C1CC1C)C(=O)N1CCCC(N1)C(=O)OCC(C)(C)C2 ? Its viability, T/C was 22.9

Given item CC(C)NCC(C(=O)N1CCN(c2ncnc3c2C(C)CC3O)CC1)c1ccc(Cl)cc1 (stereo not given) + CCn1c(-c2cc(N3CCN(C)CC3)cnc2C(C)OC)c2c3cc(ccc31)-c1csc(n1)CC(NC(=O)C1CC1C)C(=O)N1CCCC(N1)C(=O)OCC(C)(C)C2 , the value recorded as its viability, T/C is 37.9

Per the records, this compound ( CC(Nc1ccc2c(c1)OCCn1cc(N3C(=O)OCC3C(F)F)nc1-2)C(N)=O (stereo not given) + CCn1c(-c2cc(N3CCN(C)CC3)cnc2C(C)OC)c2c3cc(ccc31)-c1csc(n1)CC(NC(=O)C1CC1C)C(=O)N1CCCC(N1)C(=O)OCC(C)(C)C2 ) has viability, T/C equal to 34.9

According to the records, this compound CC1(O)CCCC1n1c(=O)c(C(F)F)cc2cnc(NC3CCN(S(C)(=O)=O)CC3)nc21 (stereo not given) + CCn1c(-c2cccnc2C(C)OC)c2c3cc(ccc31)N1CCOC(CC(NC(=O)C(C(C)C)N(C)C(=O)C3(F)CCN(C(=O)C#CC(C)(C)N(C)C)CC3)C(=O)N3CCCC(N3)C(=O)OCC(C)(C)C2)C1 displays viability, T/C of 24.7

CC1(O)CCCC1n1c(=O)c(C(F)F)cc2cnc(NC3CCN(S(C)(=O)=O)CC3)nc21 (stereo not given) + CCn1c(-c2cc(N3CCN(C)CC3)cnc2C(C)OC)c2c3cc(ccc31)-c1csc(n1)CC(NC(=O)C1CC1C)C(=O)N1CCCC(N1)C(=O)OCC(C)(C)C2 has a reported viability, T/C of 31.6

Consider CC(Nc1ccc2c(c1)OCCn1cc(N3C(=O)OCC3C(F)F)nc1-2)C(N)=O (stereo not given) + CCn1c(-c2cccnc2C(C)OC)c2c3cc(ccc31)N1CCOC(CC(NC(=O)C(C(C)C)N(C)C(=O)C3(F)CCN(C(=O)C#CC(C)(C)N(C)C)CC3)C(=O)N3CCCC(N3)C(=O)OCC(C)(C)C2)C1 . Its measured viability, T/C is 28.8

So, CCN1CCN(Cc2ccc(Nc3ncc(F)c(-c4cc(F)c5nc(C)n(C(C)C)c5c4)n3)nc2)CC1 + CCn1c(-c2cc(N3CCN(C)CC3)cnc2C(C)OC)c2c3cc(ccc31)-c1csc(n1)CC(NC(=O)C1CC1C)C(=O)N1CCCC(N1)C(=O)OCC(C)(C)C2 ? Its viability, T/C was 16

viability, T/C reading for O=C(c1ccc(F)c(F)c1Nc1ccc(I)cc1F)N1CC(O)([C@@H]2CCCCN2)C1 + CCn1c(-c2cccnc2C(C)OC)c2c3cc(ccc31)N1CCOC(CC(NC(=O)C(C(C)C)N(C)C(=O)C3(F)CCN(C(=O)C#CC(C)(C)N(C)C)CC3)C(=O)N3CCCC(N3)C(=O)OCC(C)(C)C2)C1 : 51.7

The compound C=CC(=O)N1CCN(c2nc(OCC3CCCN3C)nc3c(F)c(-c4nc(N)cc(C)c4C(F)(F)F)c(Cl)cc23)C(C)C1 (stereo not given) + CCn1c(-c2cc(N3CCN(C)CC3)cnc2C(C)OC)c2c3cc(ccc31)-c1csc(n1)CC(NC(=O)C1CC1C)C(=O)N1CCCC(N1)C(=O)OCC(C)(C)C2 showed viability, T/C equal to 23.6
